Attribution: the supplement of paper PMC8617591

Please provide measured Einf for the entries that follow.
System: Mycobacterium tuberculosis Erdman (autoluminescent)
Assay Notes: Einf, fitted maximum growth inhibition of three-drug combination (fraction); higher = stronger maximal inhibition
Measurement Setup: in vitro model: cholesterol 0.05 mM; time point: terminal (~4-5 doublings, model-specific)
Numbers only.

Use the examples below as a reference point.
Recorded Einf of COc1nc2ccc(Br)cc2cc1[C@@H](c1ccccc1)[C@@](O)(CCN(C)C)c1cccc2ccccc12 [bedaquiline] + NC(=O)c1cnccn1 [pyrazinamide] + CO[C@H]1/C=C/O[C@@]2(C)Oc3c(C)c(O)c4c(O)c(c(/C=N/N5CCN(C6CCCC6)CC5)c(O)c4c3C2=O)NC(=O)/C(C)=C\C=C\[C@H](C)[C@H](O)[C@@H](C)[C@@H](O)[C@@H](C)[C@H](OC(C)=O)[C@@H]1C [rifapentine] , please.
0.854

Recorded Einf of COc1nc2ccc(Br)cc2cc1[C@@H](c1ccccc1)[C@@](O)(CCN(C)C)c1cccc2ccccc12 [bedaquiline] + NNC(=O)c1ccncc1 [isoniazid] + NC(=O)c1cnccn1 [pyrazinamide] , please.
0.935

Next item in the queue.
Recorded Einf of CC(C)/N=c1\cc2n(-c3ccc(Cl)cc3)c3ccccc3nc-2cc1Nc1ccc(Cl)cc1 [clofazimine] + CC(=O)NC[C@H]1CN(c2ccc(N3CCOCC3)c(F)c2)C(=O)O1 [linezolid] + O=[N+]([O-])c1cn2c(n1)OC[C@@H](OCc1ccc(OC(F)(F)F)cc1)C2 [pretomanid] , please.
0.918

* * *

System: Mycobacterium tuberculosis Erdman (autoluminescent)
Assay Notes: Einf, fitted maximum growth inhibition of three-drug combination (fraction); higher = stronger maximal inhibition
Measurement Setup: in vitro model: standard 7H9 glycerol; time point: constant = terminal
Please provide measured Einf for the entries that follow.
Numbers only.

Recorded Einf of NNC(=O)c1ccncc1 [isoniazid] + O=[N+]([O-])c1cn2c(n1)OC[C@@H](OCc1ccc(OC(F)(F)F)cc1)C2 [pretomanid] + CO[C@H]1/C=C/O[C@@]2(C)Oc3c(C)c(O)c4c(O)c(c(/C=N/N5CCN(C)CC5)c(O)c4c3C2=O)NC(=O)/C(C)=C\C=C\[C@H](C)[C@H](O)[C@@H](C)[C@@H](O)[C@@H](C)[C@H](OC(C)=O)[C@@H]1C [rifampicin] , please.
0.893

Recorded Einf of CC(C)/N=c1\cc2n(-c3ccc(Cl)cc3)c3ccccc3nc-2cc1Nc1ccc(Cl)cc1 [clofazimine] + O=[N+]([O-])c1cn2c(n1)OC[C@@H](OCc1ccc(OC(F)(F)F)cc1)C2 [pretomanid] + CO[C@H]1/C=C/O[C@@]2(C)Oc3c(C)c(O)c4c(O)c(c(/C=N/N5CCN(C6CCCC6)CC5)c(O)c4c3C2=O)NC(=O)/C(C)=C\C=C\[C@H](C)[C@H](O)[C@@H](C)[C@@H](O)[C@@H](C)[C@H](OC(C)=O)[C@@H]1C [rifapentine] , please.
0.954

Recorded Einf of COc1nc2ccc(Br)cc2cc1[C@@H](c1ccccc1)[C@@](O)(CCN(C)C)c1cccc2ccccc12 [bedaquiline] + CC[C@@H](CO)NCCN[C@@H](CC)CO [ethambutol] + NNC(=O)c1ccncc1 [isoniazid] , please.
0.957

Recorded Einf of COc1nc2ccc(Br)cc2cc1[C@@H](c1ccccc1)[C@@](O)(CCN(C)C)c1cccc2ccccc12 [bedaquiline] + O=[N+]([O-])c1cn2c(n1)OC[C@@H](OCc1ccc(OC(F)(F)F)cc1)C2 [pretomanid] + NC(=O)c1cnccn1 [pyrazinamide] , please.
0.957

Recorded Einf of NNC(=O)c1ccncc1 [isoniazid] + NC(=O)c1cnccn1 [pyrazinamide] + CO[C@H]1/C=C/O[C@@]2(C)Oc3c(C)c(O)c4c(O)c(c(/C=N/N5CCN(C)CC5)c(O)c4c3C2=O)NC(=O)/C(C)=C\C=C\[C@H](C)[C@H](O)[C@@H](C)[C@@H](O)[C@@H](C)[C@H](OC(C)=O)[C@@H]1C [rifampicin] , please.
0.917

Need Einf for each of these compounds.
1. CC[C@@H](CO)NCCN[C@@H](CC)CO [ethambutol] + COc1c(N2C[C@@H]3CCCN[C@@H]3C2)c(F)cc2c(=O)c(C(=O)O)cn(C3CC3)c12 [moxifloxacin] + NC(=O)c1cnccn1 [pyrazinamide]
2. COc1nc2ccc(Br)cc2cc1[C@@H](c1ccccc1)[C@@](O)(CCN(C)C)c1cccc2ccccc12 [bedaquiline] + CC(C)/N=c1\cc2n(-c3ccc(Cl)cc3)c3ccccc3nc-2cc1Nc1ccc(Cl)cc1 [clofazimine] + O=[N+]([O-])c1cn2c(n1)OC[C@@H](OCc1ccc(OC(F)(F)F)cc1)C2 [pretomanid]
3. NNC(=O)c1ccncc1 [isoniazid] + CO[C@H]1/C=C/O[C@@]2(C)Oc3c(C)c(O)c4c(O)c(c(/C=N/N5CCN(C6CCCC6)CC5)c(O)c4c3C2=O)NC(=O)/C(C)=C\C=C\[C@H](C)[C@H](O)[C@@H](C)[C@@H](O)[C@@H](C)[C@H](OC(C)=O)[C@@H]1C [rifapentine] + CO[C@H]1/C=C/O[C@@]2(C)Oc3c(C)c(O)c4c(O)c(c(/C=N/N5CCN(C)CC5)c(O)c4c3C2=O)NC(=O)/C(C)=C\C=C\[C@H](C)[C@H](O)[C@@H](C)[C@@H](O)[C@@H](C)[C@H](OC(C)=O)[C@@H]1C [rifampicin]
4. NC(=O)c1cnccn1 [pyrazinamide] + CO[C@H]1/C=C/O[C@@]2(C)Oc3c(C)c(O)c4c(O)c(c(/C=N/N5CCN(C6CCCC6)CC5)c(O)c4c3C2=O)NC(=O)/C(C)=C\C=C\[C@H](C)[C@H](O)[C@@H](C)[C@@H](O)[C@@H](C)[C@H](OC(C)=O)[C@@H]1C [rifapentine] + CO[C@H]1/C=C/O[C@@]2(C)Oc3c(C)c(O)c4c(O)c(c(/C=N/N5CCN(C)CC5)c(O)c4c3C2=O)NC(=O)/C(C)=C\C=C\[C@H](C)[C@H](O)[C@@H](C)[C@@H](O)[C@@H](C)[C@H](OC(C)=O)[C@@H]1C
5. CC[C@@H](CO)NCCN[C@@H](CC)CO [ethambutol] + COc1c(N2C[C@@H]3CCCN[C@@H]3C2)c(F)cc2c(=O)c(C(=O)O)cn(C3CC3)c12 [moxifloxacin] + O=[N+]([O-])c1cn2c(n1)OC[C@@H](OCc1ccc(OC(F)(F)F)cc1)C2 [pretomanid]
6. CC[C@@H](CO)NCCN[C@@H](CC)CO [ethambutol] + CC(=O)NC[C@H]1CN(c2ccc(N3CCOCC3)c(F)c2)C(=O)O1 [linezolid] + O=[N+]([O-])c1cn2c(n1)OC[C@@H](OCc1ccc(OC(F)(F)F)cc1)C2 [pretomanid]
7. NNC(=O)c1ccncc1 [isoniazid] + COc1c(N2C[C@@H]3CCCN[C@@H]3C2)c(F)cc2c(=O)c(C(=O)O)cn(C3CC3)c12 [moxifloxacin] + O=[N+]([O-])c1cn2c(n1)OC[C@@H](OCc1ccc(OC(F)(F)F)cc1)C2 [pretomanid]

0.966
0.967
0.906
0.884
0.974
0.904
0.979
